Tested on: carrageenan-induced foot pad edema
Assay: Rat carrageenan-induced foot pad edema assay
Type: in vivo
Details: 10 mg/kg oral, 3 h after carrageenan
Method: Male Sprgue-Dawley rats (190-220 g ) were fasted with free access to water at least 16 h prior experiments. The rats were dosed orally with a 1 ml suspension of test compound in vehicle (0.5% methyl cellulose and 0.025% Tween-20) or with vehicle alone. One hour later a subplantar injection of 0.1 ml of 1% solution of carageenan in 0.9% strile saline was administered to the right hind foot pad. Paw volume was measured with a displacement plethysmometer 2, 3, and 4 h after carrageenan injection.
Reported edema (paw volume increase) values for the following compounds.
Supply the numeric figure in %, leaving out any unit text.

Form field edema (paw volume increase), entry CC(=O)Oc1ccc(-c2[nH]c3ccc(Cl)cc3c2-c2ccc(S(C)(=O)=O)cc2)cc1 [Example 94] : 62.1

Entry under test: CS(=O)(=O)c1ccc(-c2[nH]c3ccccc3c2-c2ccc(Br)cc2)cc1 [Example 63] . Its edema (paw volume increase) was 55.3

// field: edema (paw volume increase); key: NS(=O)(=O)c1ccc(-c2c(-c3ccccc3)[nH]c3ccccc23)cc1 [Example 101, 2-phenyl-3-(4-aminosulfonylphenyl)indole] ; value = 39.1

Entry CS(=O)(=O)c1ccc(-c2[nH]c3ccccc3c2-c2ccc(F)cc2)cc1 [Example 71] ; edema (paw volume increase) = 54.4
